The entries below are paired with their reported ΔTm.
# Tested on: Calf thymus DNA
# Assay comment: Denaturation temperature change on binding to calf thymus DNA
# Type: functional
Observable: ΔTm

smiles_code=N=C(N)c1ccc(NCCNc2ccc(C(=N)N)cc2N)c(N)c1 target_or_test_system="Calf thymus DNA" observable=ΔTm readout_number=9.8
smiles_code=COc1cc(C(=N)N)ccc1OCCCOc1ccc(C(=N)N)cc1OC target_or_test_system="Calf thymus DNA" observable=ΔTm readout_number=16.3
smiles_code=N=C(N)c1ccc(OCCCCOc2ccc(C(=N)N)cc2[N+](=O)[O-])c([N+](=O)[O-])c1 target_or_test_system="Calf thymus DNA" observable=ΔTm readout_number=9.6
smiles_code=N=C(N)c1ccc(OCCCCCCOc2ccc(C(=N)N)cc2N)c(N)c1 target_or_test_system="Calf thymus DNA" observable=ΔTm readout_number=9.5
smiles_code=Cn1cc(NC(=O)c2cc(NC(=O)c3cc(NC=O)cn3C)cn2C)cc1C(=O)NCCC(=N)N target_or_test_system="Calf thymus DNA" observable=ΔTm readout_number=11.5
smiles_code=N=C(N)c1ccc(NCCCCCNc2ccc(C(=N)N)cc2)cc1 target_or_test_system="Calf thymus DNA" observable=ΔTm readout_number=11.3
smiles_code=N=C(N)c1ccc(OCCCCCOc2ccc(C(=N)N)cc2[N+](=O)[O-])c([N+](=O)[O-])c1 target_or_test_system="Calf thymus DNA" observable=ΔTm readout_number=9.7
smiles_code=COc1cc(C(=N)N)ccc1OCCCCOc1ccc(C(=N)N)cc1OC target_or_test_system="Calf thymus DNA" observable=ΔTm readout_number=10.2
smiles_code=N=C(N)c1ccc(-c2cc3ccc(C(=N)N)cc3[nH]2)cc1 target_or_test_system="Calf thymus DNA" observable=ΔTm readout_number=21.5
smiles_code=N=C(N)c1ccc(NCCCCCCNc2ccc(C(=N)N)cc2)cc1 target_or_test_system="Calf thymus DNA" observable=ΔTm readout_number=9.1
smiles_code=N=C(N)c1ccc(NCCCCNc2ccc(C(=N)N)cc2)cc1 target_or_test_system="Calf thymus DNA" observable=ΔTm readout_number=10.3

* * *

# Test system: Nucleic Acid
# Assay comment: DNA binding activity as denaturation temperatures on AT to poly (dA)-poly(dT) normalized to ethidium bromide
# Assay type: functional
Assign labels as follows, please: T for ΔTm below 2; F for ΔTm equal to or exceeding 2.

smiles_code=N=C(N)c1ccc(OCCCOc2ccc(C(=N)N)cc2)cc1 target_or_test_system="Nucleic Acid" group_label=F
smiles_code=N=C(N)c1ccc(OCCCOc2ccc(C(=N)N)cc2N)c(N)c1 target_or_test_system="Nucleic Acid" group_label=F
smiles_code=N=C(N)c1ccc(-c2cc3ccc(C(=N)N)cc3[nH]2)cc1 target_or_test_system="Nucleic Acid" group_label=F
smiles_code=N=C(N)c1ccc(OCCCCCOc2ccc(C(=N)N)cc2N)c(N)c1 target_or_test_system="Nucleic Acid" group_label=F
smiles_code=N=C(N)c1ccc(NCCCCNc2ccc(C(=N)N)cc2)cc1 target_or_test_system="Nucleic Acid" group_label=T
smiles_code=N=C(N)c1ccc(OCCCCCOc2ccc(C(=N)N)cc2)cc1 target_or_test_system="Nucleic Acid" group_label=F

* * *

The entries below are paired with their reported ΔTm.
# System: Nucleic Acid
# Assay comment: Denaturation temperature change on binding to AT to poly (dA)-poly(dT)
# Type: functional
Observable: ΔTm

smiles_code=Cn1cc(NC(=O)c2cc(NC(=O)CNC(=N)N)cn2C)cc1C(=O)NCCC(=N)N target_or_test_system="Nucleic Acid" readout_number=46.6
smiles_code=N=C(N)c1ccc(OCCCOc2ccc(C(=N)N)cc2N)c(N)c1 target_or_test_system="Nucleic Acid" readout_number=32.2
smiles_code=N=C(N)c1ccc(NCCCCNc2ccc(C(=N)N)cc2)cc1 target_or_test_system="Nucleic Acid" readout_number=18.7
smiles_code=N=C(N)c1ccc(OCCCCCOc2ccc(C(=N)N)cc2)cc1 target_or_test_system="Nucleic Acid" readout_number=22.9
smiles_code=Cn1cc(NC(=O)c2cc(NC(=O)c3cc(NC=O)cn3C)cn2C)cc1C(=O)NCCC(=N)N target_or_test_system="Nucleic Acid" readout_number=30.5
smiles_code=N=C(N)c1ccc(NCCCCCNc2ccc(C(=N)N)cc2)cc1 target_or_test_system="Nucleic Acid" readout_number=20.7
smiles_code=COc1cc(C(=N)N)ccc1OCCCOc1ccc(C(=N)N)cc1OC target_or_test_system="Nucleic Acid" readout_number=38
smiles_code=CC[n+]1c(-c2ccccc2)c2cc(N)ccc2c2ccc(N)cc21 target_or_test_system="Nucleic Acid" readout_number=12.4
smiles_code=N=C(N)c1ccc(OCCCCOc2ccc(C(=N)N)cc2[N+](=O)[O-])c([N+](=O)[O-])c1 target_or_test_system="Nucleic Acid" readout_number=14.7
smiles_code=N=C(N)c1ccc(OCCCCOc2ccc(C(=N)N)cc2Cl)c(Cl)c1 target_or_test_system="Nucleic Acid" readout_number=20.3

* * *

The entries below are paired with their reported ΔTm.
# Tested on: Nucleic Acid
# Assay comment: Denaturation temperature change on binding to AT to poly (dA)-poly(dT)
# Format: functional
Observable: ΔTm

smiles_code=N=C(N)c1ccc(OCCOc2ccc(C(=N)N)cc2[N+](=O)[O-])c([N+](=O)[O-])c1 observable=ΔTm readout_number=10.3
smiles_code=N=C(N)c1ccc(NCCCNc2ccc(C(=N)N)cc2N)c(N)c1 observable=ΔTm readout_number=25.6
smiles_code=N=C(N)c1ccc(OCCCOc2ccc(C(=N)N)cc2)cc1 observable=ΔTm readout_number=32
smiles_code=N=C(N)c1ccc(OCCCCCOc2ccc(C(=N)N)cc2N)c(N)c1 observable=ΔTm readout_number=20.7
smiles_code=N=C(N)c1cccc(OCCCCOc2cccc(C(=N)N)c2)c1 observable=ΔTm readout_number=15.2
smiles_code=N=C(N)c1ccc(OCCOc2ccc(C(=N)N)cc2)cc1 observable=ΔTm readout_number=7.5

* * *

# System: Nucleic Acid
# Assay comment: Denaturation temperature change on binding to AT to poly (dA)-poly(dT)
# Assay type: functional
Assign labels as follows, please: 1 (yes) for ΔTm below 20; 0 (no) for ΔTm equal to or exceeding 20.

smiles_code=COc1cc(C(=N)N)ccc1OCCCCOc1ccc(C(=N)N)cc1OC group_label="0 (no)"
smiles_code=N=C(N)c1ccc(OCCCCCCOc2ccc(C(=N)N)cc2N)c(N)c1 group_label="1 (yes)"
smiles_code=N=C(N)c1ccc(OCCCCCCOc2ccc(C(=N)N)cc2)cc1 group_label="1 (yes)"
smiles_code=N=C(N)c1ccc(NCCCCNc2ccc(C(=N)N)cc2N)c(N)c1 group_label="1 (yes)"
smiles_code=N=C(N)c1ccc(OCCOc2ccc(C(=N)N)cc2N)c(N)c1 group_label="1 (yes)"
smiles_code=N=C(N)c1ccc(NCCCCCCNc2ccc(C(=N)N)cc2)cc1 group_label="1 (yes)"

* * *

# System: Nucleic Acid
# Assay comment: DNA binding property estimated by measuring denaturation temperature on GC to poly (dGC)-poly(dGC), normalized to ethidium bromide
The entries below are paired with their reported ΔTm.
Observable: ΔTm

smiles_code=N=C(N)c1ccc(OCCCOc2ccc(C(=N)N)cc2N)c(N)c1 observable=ΔTm result=1
smiles_code=N=C(N)c1ccc(NCCCCCNc2ccc(C(=N)N)cc2[N+](=O)[O-])c([N+](=O)[O-])c1 observable=ΔTm result=1.2
smiles_code=N=C(N)c1ccc(NCCCCCCNc2ccc(C(=N)N)cc2)cc1 observable=ΔTm result=0.5
smiles_code=N=C(N)c1ccc(OCCOc2ccc(C(=N)N)cc2)cc1 observable=ΔTm result=0.2
smiles_code=N=C(N)c1ccc(NCCNc2ccc(C(=N)N)cc2N)c(N)c1 observable=ΔTm result=0.6
smiles_code=N=C(N)c1cccc(OCCCCOc2cccc(C(=N)N)c2)c1 observable=ΔTm result=0.5
smiles_code=N=C(N)c1ccc(OCCOc2ccc(C(=N)N)cc2N)c(N)c1 observable=ΔTm result=0.6
smiles_code=COc1cc(C(=N)N)ccc1OCCCOc1ccc(C(=N)N)cc1OC observable=ΔTm result=0.6
smiles_code=Cn1cc(NC(=O)c2cc(NC(=O)c3cc(NC=O)cn3C)cn2C)cc1C(=O)NCCC(=N)N observable=ΔTm result=0.4
smiles_code=N=C(N)c1ccc(NCCCCNc2ccc(C(=N)N)cc2N)c(N)c1 observable=ΔTm result=0.9
smiles_code=N=C(N)c1ccc(OCCCOc2ccc(C(=N)N)cc2)cc1 observable=ΔTm result=0.8
smiles_code=N=C(N)c1ccc(NCCCCCNc2ccc(C(=N)N)cc2)cc1 observable=ΔTm result=0.8
smiles_code=N=C(N)c1ccc(OCCCCOc2ccc(C(=N)N)cc2Cl)c(Cl)c1 observable=ΔTm result=0.8
smiles_code=N=C(N)c1ccc(NCCCCNc2ccc(C(=N)N)cc2)cc1 observable=ΔTm result=0.5
smiles_code=N=C(N)c1ccc(OCCCCCOc2ccc(C(=N)N)cc2Cl)c(Cl)c1 observable=ΔTm result=0.9
smiles_code=N=C(N)c1ccc(OCCCCOc2ccc(C(=N)N)cc2[N+](=O)[O-])c([N+](=O)[O-])c1 observable=ΔTm result=0.7
